# study.target: 5-HT7 receptor (Homo sapiens, UniProt P34969)
# Construct: purchased PerkinElmer
# Sequence (P34969 whole entry): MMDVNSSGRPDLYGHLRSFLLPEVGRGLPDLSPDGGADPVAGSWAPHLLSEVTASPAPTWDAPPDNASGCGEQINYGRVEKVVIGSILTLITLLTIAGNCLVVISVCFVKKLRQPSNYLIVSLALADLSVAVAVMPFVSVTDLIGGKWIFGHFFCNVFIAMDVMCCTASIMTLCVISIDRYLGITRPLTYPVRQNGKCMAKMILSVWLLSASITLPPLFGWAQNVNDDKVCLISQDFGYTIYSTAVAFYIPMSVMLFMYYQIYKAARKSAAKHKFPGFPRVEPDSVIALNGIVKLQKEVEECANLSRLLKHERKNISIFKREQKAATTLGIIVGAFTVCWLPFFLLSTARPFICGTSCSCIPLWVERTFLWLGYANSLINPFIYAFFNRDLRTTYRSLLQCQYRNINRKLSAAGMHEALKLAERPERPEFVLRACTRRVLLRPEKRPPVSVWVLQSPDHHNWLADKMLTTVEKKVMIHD
# assay.remarks: Radioligand binding assay, serotoninergic 5-HT7 receptors
# condition.context: binding assay result in %, Table 5a
# Text: The specific ligand binding to the receptors is defined as the difference between the total binding and the non-specific binding determined in the presence of the excess of unlabelled ligand. The results are expressed as a percent of control specific binding ((measured specific binding/control specific binding)×100) and as a percent inhibition of control specific binding (100−((measured specific binding/control specific binding)×100)) obtained in the presence of the test compounds. […]
property.name: inhibition at 1 µM (%)
Answer with a number only, understood to be in %.

Example cases with answers are listed next.
| compound | inhibition at 1 µM [%] |
| --- | --- |
| Cn1ccc2c(S(=O)(=O)NCC3CN(CCOc4cccc5c4OCCO5)C3)cccc21 [Compound 188] | 91 |
| O=S(=O)(NC1CCN(CCCc2c[nH]c3ccc(F)cc23)C1)c1ccc(F)cc1 (stereo not shown) [Compound 75] | 90 |
| O=S(=O)(NCC1CCN(CCOc2cccc3ccccc23)C1)c1cccc(O)c1 (stereo not shown) [Compound 123] | 88 |
| O=S(=O)(NCC1CN(CCOc2cccc3c2OCCO3)C1)c1ccc(-c2ccccc2)cc1 [Compound 178] | 89 |
| COc1cccc(S(=O)(=O)NCC2CCN(CCCc3noc4cc(F)ccc34)C2)c1 (stereo not shown) [Compound 250] | 91 |
| Cc1c(S(=O)(=O)NCC2CN(CCOc3cccc4ccccc34)C2)sc2ccc(Cl)cc12 [Compound 167] | 90 |

Form: compound = O=S(=O)(NCC1CN(CCOc2cccc3ccccc23)C1)c1cc2ccc(Cl)cc2s1 [Compound 164] ; inhibition at 1 µM = 92
